The following compounds are shown together with reported Relative activity (%), PfRuvB3 unwinding activity values.
- System: PfRuvB3
- assay procedure: PfRuvB3 unwinding activity: requirement of co-factors and effects of salt/EDTA
- Type: biochemical, Plasmodium falciparum
- condition description: 2 mM divalent cation salt in place of MgCl2; standard reaction = 35; 1 μg PfRuvB3

Example cases with answers are listed next.
In [3]: df
Out[3]:
                     compound  study_target  experimental_result
0        [Cl][Mn][Cl] [MnCl2]       PfRuvB3                  <2%
1  [Ca+2].[Cl-].[Cl-] [CaCl2]       PfRuvB3                  <2%

Turning now to a further record.
Task: Give Relative activity (%), PfRuvB3 unwinding activity for the following compound: O=S(=O)([O-])[O-].[Fe+2] [FeSO4]
Output: <2%
